// provenance: PubChem BioAssay

- ASSAY_INFO: JC-1 mitochondrial signal, unstimulated HepG2 cells – cell-based, JC-1 fluorescence, 24 h, 100 nL compound, profiling panel (AID 1167); further: test concentration not given here
- RUN_PARAMETERS: HepG2 mitochondrial potential, higher = more signal
Entry flag: True if z-score reaches -0.5; False if it does not.

- MOLECULE: "[N-]=[N+]=NCc1ccccc1C[C@]1(C(=O)NCC(O)CO)COC(c2ccc(OCCCO)cc2)=N1 (stereo partly drawn)"
  ASSIGNED_LABEL: "False"
- MOLECULE: "CC[C@@H]1C=C(C(=O)O)[C@H](c2ccc(C(C)C)cc2)N1S(=O)(=O)c1ccc(C)cc1"
  ASSIGNED_LABEL: "False"
- MOLECULE: "CCCC[C@H]1C[C@@H]1[C@@H]1N(P(=O)(c2ccccc2)c2ccccc2)[C@](CO)(c2ccccc2)CC12CC2"
  ASSIGNED_LABEL: "False"
- MOLECULE: "COC(=O)[C@@]1(Cc2ccc(OC)cc2)[C@H]2c3cc(C(=O)N(C)C)n(CCSCCO)c3C[C@H]2CN1C(=O)c1ccccc1"
  ASSIGNED_LABEL: "True"
- MOLECULE: "CCCCC(=C=CC[C@H](O)c1ccccc1OCCO)C[C@H](O)c1cc(Cl)cc(Cl)c1O"
  ASSIGNED_LABEL: "False"
- MOLECULE: "COCCOC(=O)N1C(=O)[C@@]2(c3ccccc31)[C@H](C(=O)N1CCCCCCC1)[C@H]1C(=O)O[C@H](c3ccccc3)[C@H](c3ccccc3)N1[C@@H]2c1ccccc1OCCO"
  ASSIGNED_LABEL: "True"
- MOLECULE: "CCCC[C@H]1OB(O)C[C@H]2C1=C(C)Cn1c(=O)n(-c3ccccc3)c(=O)n12"
  ASSIGNED_LABEL: "True"
- MOLECULE: "C=C(C)[C@@H]1CC=C(C(O)C2C=CC3C(=O)N(Cc4ccccc4)C(=O)C3N2n2cnnc2)CC1 (stereo partly drawn)"
  ASSIGNED_LABEL: "True"

* * *

- ASSAY_INFO: JC-1 mitochondrial signal, unstimulated adipocytes – cell-based, JC-1 fluorescence, 3T3-L1 adipocytes, 24 h, 100 nL compound, profiling panel (AID 1168); further: test concentration not given here
- RUN_PARAMETERS: JC-1 mitochondrial fluorescence, higher = more signal, called active from +8 up or from −8 down
Entry flag: Condition met if z-score reaches 0.7; Condition not met if it does not.

- COMPOUND: "C=CCC(OC(C)=O)[C@@H]1[C@@H](N(Cc2cc3ccccc3o2)C(=O)c2ccc(C)cc2)c2cc(OCCCO)ccc2N1C(=O)c1ccc(-c2ccccc2)cc1 (stereo not given in full)"
  ASSIGNED_LABEL: "Condition not met"
- COMPOUND: "O=C(NCc1ccccc1)[C@@H]1c2ccccc2C(=O)N(Cc2cc(F)cc(C(F)(F)F)c2)[C@H]1c1ccc(CO)cc1"
  ASSIGNED_LABEL: "Condition not met"
- COMPOUND: "CN(C)CCCC[C@@H]1NC(=O)[C@@H]2C[C@H](C(=O)NCc3ccc(F)cc3)[C@H](c3cccc(OCCO)c3)N2C1=O"
  ASSIGNED_LABEL: "Condition not met"
- COMPOUND: "CCOC(=O)C[C@H]1[C@H](OC(=O)c2ccc(C(=O)c3ccccc3)cc2)[C@@H](NC(=O)c2ccc3ccccc3n2)c2cc(OCCCO)ccc2N1C(=O)c1ccc2ccccc2n1"
  ASSIGNED_LABEL: "Condition met"
- COMPOUND: "O=C1C[C@@](C(=O)O)(c2ccc([N+](=O)[O-])cc2)[C@@H](c2ccc(CO)cc2I)N1CC12CC3CC(CC(C3)C1)C2"
  ASSIGNED_LABEL: "Condition not met"
- COMPOUND: "C=CCN1Cc2ccccc2C[C@]2(N=C(c3ccc(OCCCO)cc3)O[C@@H]2c2ccccc2)C1=O"
  ASSIGNED_LABEL: "Condition not met"
- COMPOUND: "O=C1NC(=O)C2C1C=CC(C(O)c1cccs1)N2Nc1ccccn1 (stereo not given)"
  ASSIGNED_LABEL: "Condition not met"
- COMPOUND: "CC(C)NC(=O)[C@@H]1c2ccccc2C(=O)N(C2CCCCC2)[C@H]1c1ccc(CO)cc1"
  ASSIGNED_LABEL: "Condition not met"
- COMPOUND: "O=S(=O)(NCCCO)c1ccc(Br)cc1"
  ASSIGNED_LABEL: "Condition not met"
- COMPOUND: "COc1ccc(C(=O)Nc2cccc(CN3C(=O)[C@@]4(O[C@@H](CC(=O)N5Cc6ccccc6C[C@H]5CO)[C@H]([Si](C)(C)c5ccc(OC)cc5)[C@H]4C)c4ccccc43)c2)cc1"
  ASSIGNED_LABEL: "Condition met"
- COMPOUND: "COc1ccc([Si](C)(C)[C@H]2[C@H](CC(=O)N3CCC[C@H]3CO)O[C@@]3(C(=O)N(Cc4cccc(N5CCC5=O)c4)c4ccccc43)[C@@H]2C)cc1"
  ASSIGNED_LABEL: "Condition not met"
- COMPOUND: "C=CCN1C(=O)[C@]2(Cc3ccccc31)N=C(c1ccc(OCCCO)cc1)O[C@@H]2c1ccccc1"
  ASSIGNED_LABEL: "Condition met"
- COMPOUND: "O[C@@H](Cc1ccccc1)[C@@H](/C=C/c1ccccc1)NCc1ccccc1Br"
  ASSIGNED_LABEL: "Condition not met"
- COMPOUND: "COCCOC(=O)N1C(=O)[C@@]2(c3ccccc31)[C@H](c1ccc(O)cc1)N1[C@H](c3ccccc3)[C@H](c3ccccc3)OC(=O)[C@H]1[C@@H]2C(N)=O"
  ASSIGNED_LABEL: "Condition met"

* * *

- ASSAYED_TARGET: NADPH oxidase 4 (Homo sapiens) (UniProt Q9NPH5)
- Sequence (Q9NPH5 whole entry, looked up): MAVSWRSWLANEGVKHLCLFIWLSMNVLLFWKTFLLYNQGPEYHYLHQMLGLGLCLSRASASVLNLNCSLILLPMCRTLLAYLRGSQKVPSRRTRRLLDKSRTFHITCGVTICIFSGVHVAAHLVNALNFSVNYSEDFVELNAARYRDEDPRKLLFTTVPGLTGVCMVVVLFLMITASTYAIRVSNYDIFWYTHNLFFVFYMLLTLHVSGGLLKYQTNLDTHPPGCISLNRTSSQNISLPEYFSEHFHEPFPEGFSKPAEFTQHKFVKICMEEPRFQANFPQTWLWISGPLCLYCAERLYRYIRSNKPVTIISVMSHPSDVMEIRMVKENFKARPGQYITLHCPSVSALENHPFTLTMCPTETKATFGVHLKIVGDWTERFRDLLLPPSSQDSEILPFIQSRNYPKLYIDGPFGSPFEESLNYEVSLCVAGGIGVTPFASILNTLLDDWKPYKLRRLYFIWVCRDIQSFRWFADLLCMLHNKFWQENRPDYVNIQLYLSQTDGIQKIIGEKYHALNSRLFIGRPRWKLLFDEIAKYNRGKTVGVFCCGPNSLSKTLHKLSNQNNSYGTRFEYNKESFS
- ASSAY_INFO: compounds shifting NOX4 Amplex Red fluorescence – cell-based, HEK293-NOX4, tetracycline-induced, NOX inhibitor project, primary screen (AID 1160)
- RUN_PARAMETERS: HEK293-NOX4, Amplex Red H2O2 fluorescence, 45 min; higher = more signal, called active from +8 up or from −8 down
Entry flag: Yes if z-score reaches 0.4; No if it does not.

- COMPOUND: "NC(=O)NCC#Cc1ccc2c(c1)[C@]1(C(=O)N2)[C@H](c2ccc(O)cc2)N2[C@H](c3ccccc3)[C@H](c3ccccc3)OC(=O)[C@H]2[C@@H]1C(=O)N1CCN(c2ncccn2)CC1"
  ASSAYED_TARGET: "NADPH oxidase 4 (Homo sapiens) (UniProt Q9NPH5)"
  ASSIGNED_LABEL: "Yes"
- COMPOUND: "CCOC(=O)C[C@H]1[C@H](OC(=O)c2cc3ccccc3oc2=O)[C@@H](NC(=O)c2ccc3ccccc3c2)c2cc(OCCCO)ccc2N1C(=O)c1ccccc1"
  ASSAYED_TARGET: "NADPH oxidase 4 (Homo sapiens) (UniProt Q9NPH5)"
  ASSIGNED_LABEL: "No"
- COMPOUND: "CC(C)C[C@@H]1NC(=O)[C@@H]2C[C@H](C(=O)NCCCCN(C)C)[C@H](c3ccc(O)cc3)N2C1=O"
  ASSAYED_TARGET: "NADPH oxidase 4 (Homo sapiens) (UniProt Q9NPH5)"
  ASSIGNED_LABEL: "No"
- COMPOUND: "OCCCc1cc[n+](Cc2cccc(OC(F)(F)F)c2)cc1"
  ASSAYED_TARGET: "NADPH oxidase 4 (Homo sapiens) (UniProt Q9NPH5)"
  ASSIGNED_LABEL: "No"
- COMPOUND: "COc1ccc([Si](C)(C)[C@H]2[C@H](CCO)O[C@@]3(C(=O)N(Cc4cccc(N5C(=O)c6cccc7cccc5c67)c4)c4ccccc43)[C@@H]2C)cc1"
  ASSAYED_TARGET: "NADPH oxidase 4 (Homo sapiens) (UniProt Q9NPH5)"
  ASSIGNED_LABEL: "Yes"
- COMPOUND: "COC(=O)C(CC#Cc1ccc2c(c1)[C@]1(C(=O)N2)[C@H](C(=O)N2CCCCCCC2)[C@H]2C(=O)O[C@H](c3ccccc3)[C@H](c3ccccc3)N2[C@@H]1c1ccccc1OCCO)C(=O)OC"
  ASSAYED_TARGET: "NADPH oxidase 4 (Homo sapiens) (UniProt Q9NPH5)"
  ASSIGNED_LABEL: "No"
- COMPOUND: "CCOC(=O)C1=CC[C@@H](c2cccc(Cl)c2)N(S(=O)(=O)c2ccc(C)cc2)[C@H]1c1ccc(C#N)cc1"
  ASSAYED_TARGET: "NADPH oxidase 4 (Homo sapiens) (UniProt Q9NPH5)"
  ASSIGNED_LABEL: "Yes"
- COMPOUND: "CCN(CC)c1ccc(N2CC=CC34O[C@@H]5C=CCOC(=O)[C@@H]5[C@H]3C(=O)N(CCCCCO)[C@@H]4C2=O)cc1 (stereo partly drawn)"
  ASSAYED_TARGET: "NADPH oxidase 4 (Homo sapiens) (UniProt Q9NPH5)"
  ASSIGNED_LABEL: "Yes"
- COMPOUND: "C=CCC(OC(C)=O)[C@@H]1[C@@H](N(Cc2ccc(-c3cccc(C(F)(F)F)c3)o2)C(=O)Cc2ccc(OC)cc2)c2cc(OCCCO)ccc2N1C(=O)Cc1ccc(OC)cc1 (stereo partly drawn)"
  ASSAYED_TARGET: "NADPH oxidase 4 (Homo sapiens) (UniProt Q9NPH5)"
  ASSIGNED_LABEL: "No"
- COMPOUND: "CC1CC/C=C\\[C@H]2OC34C=CCN(c5ccc6ccccc6c5)C(=O)[C@H]3N(CCCCCO)C(=O)[C@@H]4C2C(=O)O1 (stereo partly drawn)"
  ASSAYED_TARGET: "NADPH oxidase 4 (Homo sapiens) (UniProt Q9NPH5)"
  ASSIGNED_LABEL: "No"
- COMPOUND: "COC(=O)[C@@]1(Cc2ccc(OC)cc2)[C@H]2c3cc(C(=O)N(C)C)n(Cc4ccc(OC)c(OC)c4)c3C[C@H]2CN1C(=O)c1ccccc1"
  ASSAYED_TARGET: "NADPH oxidase 4 (Homo sapiens) (UniProt Q9NPH5)"
  ASSIGNED_LABEL: "Yes"
- COMPOUND: "COc1ccc(C#Cc2ccc3c(c2)[C@]2(C(=O)N3)[C@H](C(=O)N3CCN(c4ncccn4)CC3)[C@H]3C(=O)O[C@H](c4ccccc4)[C@H](c4ccccc4)N3[C@@H]2c2ccc(O)cc2)cc1"
  ASSAYED_TARGET: "NADPH oxidase 4 (Homo sapiens) (UniProt Q9NPH5)"
  ASSIGNED_LABEL: "No"
- COMPOUND: "COc1ccc([Si](C)(C)[C@@H]2[C@@H](CCO)O[C@]3(C(=O)N(Cc4ccc(N5C(=O)c6cccc7cccc5c67)cc4)c4ccccc43)[C@H]2C)cc1"
  ASSAYED_TARGET: "NADPH oxidase 4 (Homo sapiens) (UniProt Q9NPH5)"
  ASSIGNED_LABEL: "Yes"
